Target: UniProt:P49327
Assay: FAS assay (Assay #1 residual NADPH detection or Assay #2 CoA detection with thio-reactive coumarin dye)
Format: biochemical
Conditions: tested generally according to the assays described (Assay #1 or #2); in at least one experimental run; read-out: pIC50 value (inhibition of FAS) (converted)
Decide using IC50 alone. Strictly below 40 nM: 1 (yes). Equal to or above 40 nM: 0 (no).

Ask: Is it true that IC50 reported for Cc1ccc2nc(-c3ccc(-c4ccc5occc5c4)cc3)n(C[C@@H]3CCN(C(=O)C4CC4)C3)c2c1 is less than 40 nM?
Reply: 0 (no)

----------
Biological target: UniProtKB P49327
Test: FAS assay (Assay #1 residual NADPH detection or Assay #2 CoA detection with thio-reactive coumarin dye)
Type: biochemical
Conditions: tested generally according to the assays described (Assay #1 or #2); in at least one experimental run; read-out: pIC50 value (inhibition of FAS) (converted)
The following compounds are shown together with reported IC50 values.
Write the answer as a number in nM, unit excluded.

CN1CCN(C(=O)c2ccc3nc(-c4ccc(-c5ccc6cc[nH]c6c5)cc4)n(C[C@@H]4CCN(C(=O)C5CC5)C4)c3c2)CC1 [Example 106] | 55
O=C(C1CC1)N1CC[C@@H](Cn2c(-c3ccc(-c4ccccc4)cc3)nc3c(Br)cccc32)C1 [Example 33] | 135
O=C(C1CC1)N1CC[C@@H](Cn2c(-c3ccc(-c4ccc5cc[nH]c5c4)cc3)nc3c(C(F)(F)F)cccc32)C1 [Example 24] | 49

Ask: Return reported IC50; argument: O=C(C1CC1)N1CC[C@@H](Cn2c(-c3ccc(-c4ccc(F)cc4)cc3)nc3cccc(C(F)(F)F)c32)C1 [Example 117]
Reply: 1450

----------
Measured IC50 accompanies every entry in the list below.
Target: FAS (Homo sapiens, UniProt P49327)
Sequence (P49327 whole entry): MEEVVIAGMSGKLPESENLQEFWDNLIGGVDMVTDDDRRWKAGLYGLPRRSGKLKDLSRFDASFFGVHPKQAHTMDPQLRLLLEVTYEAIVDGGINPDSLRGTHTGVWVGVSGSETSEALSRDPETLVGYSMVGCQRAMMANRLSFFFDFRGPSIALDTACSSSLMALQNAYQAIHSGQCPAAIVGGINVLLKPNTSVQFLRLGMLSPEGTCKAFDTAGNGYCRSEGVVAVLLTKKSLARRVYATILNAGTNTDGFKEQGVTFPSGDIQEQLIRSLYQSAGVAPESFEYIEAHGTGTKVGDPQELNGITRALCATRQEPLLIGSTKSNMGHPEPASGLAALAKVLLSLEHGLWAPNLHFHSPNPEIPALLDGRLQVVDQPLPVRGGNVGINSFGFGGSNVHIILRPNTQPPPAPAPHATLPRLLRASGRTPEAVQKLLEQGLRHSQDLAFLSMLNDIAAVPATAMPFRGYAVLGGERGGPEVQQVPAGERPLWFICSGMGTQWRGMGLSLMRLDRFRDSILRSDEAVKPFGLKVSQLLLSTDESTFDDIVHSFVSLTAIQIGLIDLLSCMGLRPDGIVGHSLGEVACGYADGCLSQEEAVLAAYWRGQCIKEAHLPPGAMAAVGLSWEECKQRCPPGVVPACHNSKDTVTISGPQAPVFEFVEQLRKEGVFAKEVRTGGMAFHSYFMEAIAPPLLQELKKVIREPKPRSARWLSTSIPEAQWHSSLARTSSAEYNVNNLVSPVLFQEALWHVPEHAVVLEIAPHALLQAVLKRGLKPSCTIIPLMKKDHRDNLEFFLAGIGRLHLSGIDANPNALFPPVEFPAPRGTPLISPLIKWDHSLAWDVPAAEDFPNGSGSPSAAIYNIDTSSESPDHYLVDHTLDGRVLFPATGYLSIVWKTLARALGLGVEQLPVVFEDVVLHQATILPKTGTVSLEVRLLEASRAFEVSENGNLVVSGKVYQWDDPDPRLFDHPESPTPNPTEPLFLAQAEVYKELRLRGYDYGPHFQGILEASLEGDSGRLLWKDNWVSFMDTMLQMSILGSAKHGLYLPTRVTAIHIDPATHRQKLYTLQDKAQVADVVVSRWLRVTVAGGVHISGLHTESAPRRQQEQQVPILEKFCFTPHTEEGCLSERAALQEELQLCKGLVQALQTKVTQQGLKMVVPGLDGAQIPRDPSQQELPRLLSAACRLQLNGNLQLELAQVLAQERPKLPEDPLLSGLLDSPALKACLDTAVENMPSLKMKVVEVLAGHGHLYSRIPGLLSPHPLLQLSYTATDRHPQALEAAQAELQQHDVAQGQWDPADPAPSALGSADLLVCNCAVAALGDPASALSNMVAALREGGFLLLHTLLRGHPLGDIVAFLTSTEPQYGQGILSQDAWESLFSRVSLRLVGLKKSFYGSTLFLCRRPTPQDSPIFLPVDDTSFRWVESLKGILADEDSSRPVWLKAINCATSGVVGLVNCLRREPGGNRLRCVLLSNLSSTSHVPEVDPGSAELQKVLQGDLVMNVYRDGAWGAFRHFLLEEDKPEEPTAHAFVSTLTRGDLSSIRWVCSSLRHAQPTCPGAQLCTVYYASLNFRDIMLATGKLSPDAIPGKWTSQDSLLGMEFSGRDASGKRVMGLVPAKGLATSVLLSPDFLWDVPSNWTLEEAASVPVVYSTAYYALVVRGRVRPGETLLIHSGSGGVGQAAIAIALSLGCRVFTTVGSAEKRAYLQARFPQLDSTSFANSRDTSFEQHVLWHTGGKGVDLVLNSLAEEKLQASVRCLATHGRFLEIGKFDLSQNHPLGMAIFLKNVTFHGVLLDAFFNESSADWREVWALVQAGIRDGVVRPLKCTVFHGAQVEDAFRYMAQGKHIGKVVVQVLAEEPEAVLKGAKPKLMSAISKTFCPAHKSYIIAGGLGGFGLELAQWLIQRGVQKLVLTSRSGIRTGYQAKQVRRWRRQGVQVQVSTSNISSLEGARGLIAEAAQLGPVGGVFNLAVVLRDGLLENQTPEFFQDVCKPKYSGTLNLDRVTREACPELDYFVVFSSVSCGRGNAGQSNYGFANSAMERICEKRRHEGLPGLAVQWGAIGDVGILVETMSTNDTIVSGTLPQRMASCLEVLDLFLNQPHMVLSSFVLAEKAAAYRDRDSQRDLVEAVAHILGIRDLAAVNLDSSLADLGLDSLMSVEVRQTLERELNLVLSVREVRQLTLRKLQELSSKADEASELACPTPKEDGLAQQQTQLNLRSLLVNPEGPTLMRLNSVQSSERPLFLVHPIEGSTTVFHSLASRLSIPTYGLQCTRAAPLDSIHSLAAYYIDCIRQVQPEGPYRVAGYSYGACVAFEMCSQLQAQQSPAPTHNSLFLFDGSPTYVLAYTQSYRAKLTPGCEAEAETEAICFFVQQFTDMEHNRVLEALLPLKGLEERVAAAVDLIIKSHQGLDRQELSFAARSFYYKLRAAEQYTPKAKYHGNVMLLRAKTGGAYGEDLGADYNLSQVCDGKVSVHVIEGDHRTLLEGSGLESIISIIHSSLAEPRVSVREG
Experiment: FAS assay (Assay #1 residual NADPH detection or Assay #2 CoA detection with thio-reactive coumarin dye)
Type: biochemical
Conditions: tested generally according to the assays described (Assay #1 or #2); in at least one experimental run; read-out: pIC50 value (inhibition of FAS) (converted)
Unit µM implied. Number only.

O=C(C1CC1)N1CC[C@@H](Cn2c(-c3ccc(-c4ccc5[nH]ccc5c4)cc3)nc3cc(C(F)(F)F)ccc32)C1 | 0.0309
CN1CCN(C(=O)c2ccc3nc(-c4ccc(-c5ccc6[nH]ccc6c5)cc4)n(C[C@@H]4CCN(C(=O)C5CC5)C4)c3c2)CC1 | 0.01
COc1ccc2nc(-c3ccc(-c4ccc5cc[nH]c5c4)cc3)n(C[C@@H]3CCN(C(=O)C4CC4)C3)c2c1 | 0.0219
Cc1ccc2c(c1)nc(-c1ccc(-c3ccc4[nH]ncc4c3)cc1)n2C[C@@H]1CCN(C(=O)C2CC2)C1 | 0.0269

Ask: Quick one: IC50 of O=C(C1CC1)N1CC[C@@H](Cn2c(-c3ccc(-c4ccc5ncsc5c4)cc3)nc3ccccc32)C1 ?
Reply: 0.055

Ask: Queued: O=C(C1CC1)N1CC[C@@H](Cn2c(-c3ccc(-c4ccc5cc[nH]c5c4)cc3)nc3ccc(C(F)(F)F)cc32)C1
Reply: 0.0437
